These measurements were taken from paper PMC10397247.

Kindly state interaction score for each of the entries shown.
- test.target: T1, 4H2947-AA
- T1 chain: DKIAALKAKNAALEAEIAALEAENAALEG
- protocol.details: two-hybrid library CCmax;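 also: natural log of median RNA to DNA barcode read ratio; higher means stronger binding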
- measurement.setup: mean of both orientations
The answer should be a number; do not append a unit.

*Q* Name the reported interaction score value associated with the binder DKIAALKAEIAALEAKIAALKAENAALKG [4H2604-AA]
*A* -1.68

*Q* I am curious: what interaction score value has been reported for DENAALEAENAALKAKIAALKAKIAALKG [4H1262-AA] ?
*A* 0.251

*Q* I'd like to know its interaction score. The binder in question is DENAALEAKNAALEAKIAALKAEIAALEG [4H1449-AA]
*A* -1.1

*Q* Can you look up the measured interaction score of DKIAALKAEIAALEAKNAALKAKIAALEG [4H2621-AA] for me?
*A* -1.47
